System: OVCAR-3
Test: cells
Design: species or system JFCR39 human cancer cell lines; JFCR39 panel growth inhibition, sulforhodamine B total protein after 48 h
Conditions: Homo sapiens, OVCAR-3, 48 h
The reader will find reported GI50 values listed item by item below.
outcome measure: GI50 (µM)

{"columns": ["compound", "numeric value"],
 "data": [
  ["C=C1CCC2C(C)(CCC=C(C)C)C(O)CCC2(C)C1Cc1c(OC)oc(CO)c(C(=O)OC)c1=O (centres unmarked)", 10.8],
  ["C=C1CCC2C(C)(CC(=O)C=C(C)C)C(O)CCC2(C)C1Cc1c(O)c(C)c(C)oc1=O (centres unmarked)", 20.6],
  ["C=C1CCC2C(C)(CCC=C(C)C)C(O)CCC2(C)C1Cc1c(OC)oc(C)c(C(=O)OC)c1=O (centres unmarked)", 10.3],
  ["C=C1CCC2C(C)(CCC=C(C)C)C(O)CCC2(C)C1Cc1c(OC)oc(CO)c(C)c1=O (centres unmarked)", 4.69],
  ["C=C1CC[C@@H]2[C@](C)(CC[C@H]3O[C@H](C=C(C)C)C[C@@]23C)[C@@H]1Cc1c(OC)oc(CO)c(C(=O)OC)c1=O", 12]
]}

---

Biological target: Aβ42 (Homo sapiens)
Sequence (P05067 672-713): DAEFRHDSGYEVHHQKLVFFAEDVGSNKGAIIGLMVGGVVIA
Assay: Th-T (thioflavin-T) assay of Aβ42 aggregation
Type: biochemical
Settings: column suffix _50; reading M91
Note to self: values exactly at 0.5 are yes. So Fig. 7a Th-T reading, mean of three wells at or above 0.5 is yes, below is no.

{"columns": ["compound", "label class"],
 "data": [
  ["C=C1CC[C@@H]2[C@](C)(CC[C@H]3O[C@H](C=C(C)C)C[C@@]23C)[C@@H]1Cc1c(OC)oc(CO)c(C(=O)OC)c1=O", "no"],
  ["C=C1CC[C@@H]2[C@](C)(CC[C@H]3O[C@H](C=C(C)C)C[C@@]23C)[C@@H]1Cc1c(OC)oc(CO)c(C)c1=O", "yes"],
  ["C=C1CCC2C(C)(CCC=C(C)C)C(O)CCC2(C)C1Cc1c(OC)oc(C)c(C(=O)OC)c1=O (centres unmarked)", "yes"],
  ["C=C1CCC2C(C)(CCC=C(C)C)C(O)CCC2(C)C1Cc1c(OC)oc(CO)c(C(=O)OC)c1=O (centres unmarked)", "no"],
  ["C=C1CCC2C(C)(CCC=C(C)C)C(O)CCC2(C)C1Cc1c(OC)oc(CO)c(C)c1=O (centres unmarked)", "yes"]
]}

---

The reader will find reported Th-T fluorescence, mean of three wells values listed item by item below.
Biological target: UniProt P05067
Assay: Th-T (thioflavin-T) assay of Aβ42 aggregation
Type: biochemical
Settings: reading M19; Supplementary Fig. 47 source data
outcome measure: Th-T fluorescence, mean of three wells

{"columns": ["molecule", "assay target", "numeric value"],
 "data": [
  ["C=C1CC[C@H]2[C@]3(C)C[C@H](C=C(C)C)O[C@H]3CC[C@]2(C)[C@@H]1Cc1c(OC)oc(CO)c(C)c1=O", "UniProt P05067", 3.485],
  ["CC(C)=CCC/C(C)=C/CC/C(C)=C/CC/C(C)=C/Cc1c(O)c(C)c(C)oc1=O", "UniProt P05067", 2.533],
  ["C=C1CC[C@H]2[C@]3(C)C[C@@H](C=C(C)C)O[C@H]3CC[C@]2(C)[C@@H]1Cc1c(OC)oc(CO)c(C)c1=O", "UniProt P05067", 2.683],
  ["C=C1CC[C@H]2[C@]3(C)C[C@H](C=C(C)C)O[C@H]3CC[C@]2(C)[C@@H]1Cc1c(O)c(C)c(C)oc1=O", "UniProt P05067", 1.858],
  ["C=C1CC[C@H]2[C@]3(C)C[C@@H](C=C(C)C)O[C@H]3CC[C@]2(C)[C@@H]1Cc1c(O)c(C)c(C)oc1=O", "UniProt P05067", 2.206],
  ["C=C1CCC2C(C)(CC(=O)C=C(C)C)C(O)CCC2(C)C1Cc1c(O)c(C)c(C)oc1=O (stereo not drawn)", "UniProt P05067", 1.135],
  ["C=C1CC[C@H]2[C@]3(C)C[C@H](C=C(C)C)O[C@H]3CC[C@]2(C)[C@@H]1Cc1c(OC)oc(C)c(C)c1=O", "UniProt P05067", 3.715],
  ["C=C1CC[C@@H]2[C@](C)(CC[C@H]3O[C@H](C=C(C)C)C[C@@]23C)[C@@H]1Cc1c(O)c(C)c(C)oc1=O", "UniProt P05067", 2.598],
  ["C=C1CCC2C(C)(CC(=O)C=C(C)C)C(O)CCC2(C)C1Cc1c(OC)oc(C)c(C)c1=O (stereo not drawn)", "UniProt P05067", 3.285],
  ["C=C1CCC2C(C)(CCC=C(C)C)C(=O)CCC2(C)C1Cc1c(O)c(C)c(C)oc1=O (stereo not drawn)", "UniProt P05067", 1.697],
  ["C=C1CCC2C(C)(CC(=O)C=C(C)C)C(O)CCC2(C)C1Cc1c(OC)oc(CO)c(C)c1=O (stereo not drawn)", "UniProt P05067", 1.7884],
  ["C=C1CCC2C3(C)CC(C=C(C)C)OC3CCC2(C)C1Cc1c(OC)oc(C)c(C)c1=O (stereo not drawn)", "UniProt P05067", 3.356]
]}

---

Test: cytotoxicity in Drosophila l(2)mbn cells
Type: cell-based
Settings: Drosophila, l(2)mbn cells (larval blood cell-derived), 10 µM, replicate 2, relative to DMSO 1%, read-out: % viability, viability 2
outcome measure: viability at 10 µM (%)

{"columns": ["compound", "numeric value"],
 "data": [
  ["C=C1CC[C@H]2[C@]3(C)C[C@H](C=C(C)C)O[C@H]3CC[C@]2(C)[C@@H]1Cc1c(OC)oc(C)c(C)c1=O", 6.23],
  ["C=C1CCC2C(C)(CC(=O)C=C(C)C)C(O)CCC2(C)C1Cc1c(OC)oc(CO)c(C)c1=O (stereo not shown)", 136],
  ["C=C1CCC2C(C)(CCC=C(C)C)C(O)CCC2(C)C1Cc1c(OC)oc(C)c(C(=O)OC)c1=O (stereo not shown)", 9.05],
  ["C=C1CC[C@@H]2[C@](C)(CC[C@H]3O[C@H](C=C(C)C)C[C@@]23C)[C@@H]1Cc1c(O)c(C)c(C)oc1=O", 7.85],
  ["C=C1CCC2C(C)(CCC=C(C)C)C(=O)CCC2(C)C1Cc1c(O)c(C)c(C)oc1=O (stereo not shown)", 2.94],
  ["C=C1CCC2C(C)(CCC=C(C)C)C(O)CCC2(C)C1Cc1c(OC)oc(CO)c(C)c1=O (stereo not shown)", 6.84],
  ["C=C1CCC2C(C)(CC(=O)C=C(C)C)C(O)CCC2(C)C1Cc1c(O)c(C)c(C)oc1=O (stereo not shown)", 115]
]}

---

Target: Aβ42 (Homo sapiens)
Test: Th-T (thioflavin-T) assay of Aβ42 aggregation
Type: biochemical
Settings: column suffix _20; reading M92
outcome measure: Fig. 7a Th-T reading, mean of three wells

{"columns": ["compound", "numeric value"],
 "data": [
  ["C=C1CCC2C(C)(CCC=C(C)C)C(O)CCC2(C)C1Cc1c(OC)oc(C)c(C(=O)OC)c1=O (centres unmarked) [Compound 14]", 1.795],
  ["C=C1CCC2C(C)(CCC=C(C)C)C(O)CCC2(C)C1Cc1c(OC)oc(CO)c(C)c1=O (centres unmarked) [Compound 12]", 2.104],
  ["C=C1CCC2C(C)(CCC=C(C)C)C(O)CCC2(C)C1Cc1c(OC)oc(CO)c(C(=O)OC)c1=O (centres unmarked) [Compound 13]", 1.043],
  ["C=C1CC[C@@H]2[C@](C)(CC[C@H]3O[C@H](C=C(C)C)C[C@@]23C)[C@@H]1Cc1c(OC)oc(CO)c(C(=O)OC)c1=O [Compound 21]", 0.8356],
  ["C=C1CC[C@@H]2[C@](C)(CC[C@H]3O[C@H](C=C(C)C)C[C@@]23C)[C@@H]1Cc1c(OC)oc(CO)c(C)c1=O [Compound 20]", 3.303]
]}

---

Experiment: cytotoxicity in Drosophila DL1 cells
Format: cell-based
Details: Drosophila, DL1 cells (embryonic macrophage-derived), DL1 cells, 20 µM, replicate 1, relative to DMSO 1%; read-out: % viability, viability 1

{"columns": ["compound", "unit abbreviation", "viability at 20 µM"],
 "data": [
  ["C=C1CC[C@H]2[C@]3(C)C[C@@H](C=C(C)C)O[C@H]3CC[C@]2(C)[C@@H]1Cc1c(OC)oc(CO)c(C)c1=O", "%", 15.2],
  ["C=C1CCC2C3(C)CC(C=C(C)C)OC3CCC2(C)C1Cc1c(OC)oc(C)c(C)c1=O (centres unmarked)", "%", 8.44],
  ["C=C1CC[C@@H]2[C@](C)(CC[C@H]3O[C@H](C=C(C)C)C[C@@]23C)[C@@H]1Cc1c(OC)oc(CO)c(C(=O)OC)c1=O", "%", 2.31],
  ["C=C1CCC2C(C)(CC(=O)C=C(C)C)C(O)CCC2(C)C1Cc1c(OC)oc(CO)c(C)c1=O (centres unmarked)", "%", 15.3],
  ["C=C1CCC2C(C)(CCC=C(C)C)C(O)CCC2(C)C1Cc1c(OC)oc(CO)c(C)c1=O (centres unmarked)", "%", 3.83],
  ["C=C1CC[C@@H]2[C@](C)(CC[C@H]3O[C@H](C=C(C)C)C[C@@]23C)[C@@H]1Cc1c(OC)oc(CO)c(C)c1=O", "%", 20.5],
  ["C=C1CCC2C(C)(CCC=C(C)C)C(O)CCC2(C)C1Cc1c(OC)oc(CO)c(C(=O)OC)c1=O (centres unmarked)", "%", 4.62],
  ["C=C1CCC2C(C)(CC(=O)C=C(C)C)C(O)CCC2(C)C1Cc1c(OC)oc(C)c(C)c1=O (centres unmarked)", "%", 19.2],
  ["C=C1CCC2C(C)(CC(=O)C=C(C)C)C(O)CCC2(C)C1Cc1c(O)c(C)c(C)oc1=O (centres unmarked)", "%", 13.4],
  ["C=C1CCC2C(C)(CCC=C(C)C)C(=O)CCC2(C)C1Cc1c(O)c(C)c(C)oc1=O (centres unmarked)", "%", 21.6],
  ["C=C1CCC2C(C)(CCC=C(C)C)C(O)CCC2(C)C1Cc1c(OC)oc(C)c(C(=O)OC)c1=O (centres unmarked)", "%", 5.02],
  ["C=C1CCC2C(C)(CCC=C(C)C)C(O)CCC2(C)C1Cc1c(O)c(C)c(C)oc1=O (centres unmarked)", "%", 19.2],
  ["C=C1CC[C@H]2[C@]3(C)C[C@H](C=C(C)C)O[C@H]3CC[C@]2(C)[C@@H]1Cc1c(OC)oc(CO)c(C)c1=O", "%", 3.9],
  ["C=C1CC[C@H]2[C@]3(C)C[C@H](C=C(C)C)O[C@H]3CC[C@]2(C)[C@@H]1Cc1c(O)c(C)c(C)oc1=O", "%", 7.25]
]}
